TEST_METHOD_NOTES: folding enthalpy; higher = less favourable; fluorescence melt of hairpins on a sequencing array, two-state fit
MEASUREMENT_CONTEXT: sodium 0.088 M

- ORDERED_RESIDUES: "GTTCCGCGAAAGCGTAAC (((.(((....))).)))"
  folding enthalpy [kcal/mol]: -20.2
- ORDERED_RESIDUES: "GGAACTCGAAAGAGTCC (((.(((....))))))"
  folding enthalpy [kcal/mol]: -19.5
- ORDERED_RESIDUES: "TTGTTGAAAAACAA (((((....)))))"
  folding enthalpy [kcal/mol]: -11.4
- ORDERED_RESIDUES: "GAAGGGGGAAACTCCTTC (((((.(....).)))))"
  folding enthalpy [kcal/mol]: -25.6
- ORDERED_RESIDUES: "GATCATGGGCATGATC ((((((....))))))"
  folding enthalpy [kcal/mol]: -38
- ORDERED_RESIDUES: "GATCCCAGTGGGGATC ((((((....))))))"
  folding enthalpy [kcal/mol]: -32.7
- ORDERED_RESIDUES: "GGAGCCGGAAACGACTCC ((((.((....)).))))"
  folding enthalpy [kcal/mol]: -55.2
- ORDERED_RESIDUES: "GGGCCCGAAAGGGATCCC ((((((....)))..)))"
  folding enthalpy [kcal/mol]: -14.9
- ORDERED_RESIDUES: "GGCTTGCCGAAAGGCGCC (((..(((....))))))"
  folding enthalpy [kcal/mol]: -14
- ORDERED_RESIDUES: "GCCTTAGCGAAAGCTGGC (((..(((....))))))"
  folding enthalpy [kcal/mol]: -21
- ORDERED_RESIDUES: "GCAGCCCCGAAAGGGTGC (((..(((....))))))"
  folding enthalpy [kcal/mol]: -16.5
- ORDERED_RESIDUES: "GCCGACGGAAACACCGGC ((((..(....)..))))"
  folding enthalpy [kcal/mol]: -20.4
- ORDERED_RESIDUES: "GGACTTGGAAACAAGCCC ((.((((....)))).))"
  folding enthalpy [kcal/mol]: -31
- ORDERED_RESIDUES: "GTGGACCCGAAAGGGCAC (((..(((....))))))"
  folding enthalpy [kcal/mol]: -16.6
- ORDERED_RESIDUES: "GTCCTTCGAAAGAAGAC (((.(((....))))))"
  folding enthalpy [kcal/mol]: -18.3
- ORDERED_RESIDUES: "CCACTGAAAAGTGG (((((....)))))"
  folding enthalpy [kcal/mol]: -25.3
- ORDERED_RESIDUES: "GGCAAGGGAAACCTCGCC (((.(((....))).)))"
  folding enthalpy [kcal/mol]: -32
- ORDERED_RESIDUES: "GCGATGTCTCGC ((((....))))"
  folding enthalpy [kcal/mol]: -19.6
- ORDERED_RESIDUES: "GATAGTGGAAACGCTATC (((((.(....).)))))"
  folding enthalpy [kcal/mol]: -25.7
- ORDERED_RESIDUES: "GGGAGGGGAAACCTTCCC ((((.((....)).))))"
  folding enthalpy [kcal/mol]: -25.1
